# EXPERIMENTAL_PROTOCOL: qHTS assay for identifying genotoxic compounds that show differential cytotoxicity against isogenic chicken DT40 cell lines with known DNA damage response pathways - wild type cell line (AID 743012); note: nearly all actives have a fitted effect of over 60% in size
# TEST_CONDITIONS: DT40 wild type chicken cells viability, CellTiter-Glo, 40 h; series mostly up to 68.4 µM
Inconclusive results are not listed. The source made the active and inactive calls. Calls come from the whole dose curve; as a rule, active = well fitted cell-killing curve with a large enough effect in the repeat runs; inconclusive = weak or mixed curves, or effect the other way; inactive = no such curve, though single readings can be large or run the other way.
Answer with one of the outcomes active, inactive

Returns: the outcome recorded for CCN[C@H]1C[C@H](C)S(=O)(=O)c2sc(S(N)(=O)=O)cc21 in this assay.
inactive

// outcome(item) with item = CCN(CC#N)c1cccc(C)c1
inactive

Assay outcome for [K+] : what was it?
inactive

Dear all, I need the recorded test outcome for C[N+]1(C)CCCC(OC(=O)C(O)(c2ccccc2)c2ccccc2)C1 (stereo not given) , thank you.
inactive

Short answer needed: outcome of this test for [O-][n+]1cccc(CO)c1 ?
inactive

Recorded test outcome, item Cc1ccc(C(=O)c2ccccc2)cc1
active

Called result for O=C(c1ccccc1O)c1ccccc1O
inactive

Per the records of this test, what outcome belongs to CN1CCN(c2cc3c(nn2)Oc2ccccc2N3C)CC1 ?
inactive

For this compound, state the assay outcome: COCCOC[C@H](CC1(C(=O)NC2CCC(C(=O)O)CC2)CCCC1)C(=O)Oc1ccc2c(c1)CCC2 (stereo not given in full)
inactive

Fill in: this test's call for CNCCO is ___
inactive

Record request — test call for NC(CCC(=O)O)C(=O)O (stereo not given)
inactive

Kindly provide the recorded test outcome for the following compound: CCCCCCC#CC(=O)OC
inactive

# fetch the recorded call for Cc1c(N)c(=O)n(-c2ccccc2)n1C here
inactive

Please state the recorded outcome for this compound: CCOc1ccccc1OCC
inactive

Just curious, what result did CC(C(=O)O)c1cccc(Oc2ccccc2)c1 (stereo not given) get here?
inactive

Hi, do you know how CC(=O)Oc1cccc(C)c1 came out in this test?
inactive

Each compound tested received a call. Report the one for CCC1C(=O)OCC1Cc1cncn1C (stereo not given) .
inactive

Assay result, entry NC(=O)N1c2ccccc2CC(=O)c2ccccc21 — outcome?
active

Status in this test for O=S(=O)(O)c1cccc2c(S(=O)(=O)O)cccc12 ?
inactive

Which result was noted for this compound in the test: CC[N+](C)(CC)CCOC(=O)C1c2ccccc2Oc2ccccc21
inactive

Write down the call the test reported for this compound. Item: CCNS(=O)(=O)c1ccc(C)cc1
inactive

Record request — test call for COc1cc(C(=O)NCc2ccc(OCCN(C)C)cc2)cc(OC)c1OC
inactive

Would you mind telling me which call this test gave Cc1ccc(C(=O)c2ccc(CC(=O)O)n2C)cc1 ?
inactive

What did the test return for CC(C)(C#N)Nc1nc(Cl)nc(NC2CC2)n1 ?
inactive

What outcome does the record of this test show for CO[Si](C)(OC)c1ccccc1 ?
inactive

Entry CC(C)c1ccc2ncccc2c1 : call = ?
inactive

Field: outcome | Entry: CC1=C(C/C=C(\C)CCC[C@H](C)CCC[C@H](C)CCCC(C)C)C(=O)c2ccccc2C1=O
inactive

# fetch the recorded call for CN(C)[C@@H]1C(=O)C(C(=O)NCN2CCCC2)=C(O)[C@@]2(O)C(=O)C3=C(O)c4c(O)cccc4[C@@](C)(O)C3C[C@@H]12 (stereo not given in full) here
inactive

Look up the recorded call for CCOCC(C)O (stereo not given) in this test.
inactive

Please state the recorded outcome for this compound: COc1cccc(OC)c1C(=O)N[C@@H]1C(=O)N2[C@@H]1SC(C)(C)[C@@H]2C(=O)O
inactive

State the result this test recorded for O=S(=O)(O)c1cccc2ccccc12 .
inactive

How did this test come out for CCCCN1C=CN(C)C1 ?
inactive

# lookup: test call for O=C(O)CNC(=O)c1ccc(CO)o1
inactive

// param item: C[C@H]1C[C@H]2[C@@H]3CCC4=CC(=O)C=C[C@]4(C)[C@H]3C(=O)C[C@]2(C)[C@@]1(O)C(=O)CO ; yields the recorded call
inactive

So what was the verdict on Cc1cccc(C)c1NC(=O)CC12CCCN1CCC2 in this test?
inactive

Status in this test for CC[N+](CC)(CC)CCOc1cccc(OCC[N+](CC)(CC)CC)c1OCC[N+](CC)(CC)CC ?
inactive

Which outcome was assigned to C=CCCC(=O)O in this test?
inactive

Could you please tell me the result logged for C[N+](C)(C)CCCCCCCCCC[N+](C)(C)C in this assay?
inactive

# fetch the recorded call for COc1ccnc(CS(=O)c2nc3cc(OC(F)F)ccc3[nH]2)c1OC (stereo not given) here
inactive

Which result was noted for this compound in the test: NO
inactive

I'd appreciate the recorded outcome for CC(C)[C@H]1CC[C@@H](C)CC1=O from this test.
inactive

Recorded call for CCCCCCCCCCCCSC ?
inactive

Which outcome was assigned to CCCCOCCOC(=O)CCCCCCCCC(=O)OCCOCCCC in this test?
inactive

Please share the test call associated with CCO[Si](OCC)(OCC)c1ccccc1 .
inactive

How did this test come out for CC(C)(N)C#N ?
inactive

====

# TARGET: Peroxisome proliferator-activated receptor delta (Homo sapiens)
# EXPERIMENTAL_PROTOCOL: qHTS assay to identify small molecule agonists of the peroxisome proliferator-activated receptor delta (PPARd) signaling pathway (AID 743212);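 note: HEK293H cells with PPARd UAS beta-lactamase reporter GeneBLAzer system; % is set by controls: 0 for no effect and ±100 for the full control effect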
# TEST_CONDITIONS: HEK293H PPARd-UAS-bla, beta-lactamase FRET ratio, 17 h; series mostly up to 62.6 µM
Records with an inconclusive call do not appear. The source made the active and inactive calls. Calls come from the whole dose curve.
ENDPOINT_NAME: activation

Worked cases, activation given:
Cc1ccc(C(=O)c2ccccc2)cc1 | inactive
O=S(=O)(O)c1cccc(S(=O)(=O)O)c1 | inactive
CN1CCN(c2cc3c(nn2)Oc2ccccc2N3C)CC1 | inactive
CC(COc1ccccc1)NN (configuration not stated) | inactive
Cc1cc(C)c(N=Nc2c(O)c(S(=O)(=O)O)cc3cc(S(=O)(=O)O)ccc23)cc1C | 6.93% [at 5.95 µM] (inactive)

Return activation (reported value) for this molecule: NC(=O)N1c2ccccc2CC(=O)c2ccccc21
inactive

Please supply the value of reported activation for the item C=C(C)C(=O)OCC1CCCO1 (configuration not stated)
inactive

====

# EXPERIMENTAL_PROTOCOL: qHTS assay to identify small molecule antagonists of the estrogen receptor beta (ER-beta) signaling pathway - cell viability counter screen (AID 1259382);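 note: HEK293T cells carrying ER-beta-UAS-bla reporter stimulated with estradiol; % is set by controls: 0 for no effect and ±100 for the full control effect; nearly all actives have a fitted effect of over 55% in size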
# TEST_CONDITIONS: ER-beta-UAS-bla HEK293T viability, CellTiter-Glo luminescence, 16 h; series mostly up to 92.4 µM
Inconclusive results are not listed. Calls of active or inactive are those of the source. The call rests on the fitted dose curve; in most records, active means well fitted cell-killing curve with a large enough effect in the repeat runs; inconclusive means weak or mixed curves; inactive means flat fitted curve, though single readings scatter.
ENDPOINT_NAME: activity change, negative = cytotoxicity

CC(C)(C)C(=O)c1ccccc1 | inactive
CC(C(=O)O)c1cccc(Oc2ccccc2)c1 (stereo not given) | inactive
CCN(Cc1ccccc1)c1ccccc1 | inactive
COc1c(N2CCNC(C)C2)c(F)cc2c(=O)c(C(=O)O)cn(C3CC3)c12 (stereo not given) | inactive
COc1cc(-c2ccc(=O)[nH]n2)ccc1OC(F)F | inactive

Please give the documented activity change, negative = cytotoxicity of CCN[C@@H]1C[C@H](N)[C@@H](OC2OC(CN)=CCC2N)[C@H](O)[C@H]1O[C@H]1OC[C@](C)(O)[C@H](NC)[C@H]1O (stereo not given in full)
16.4% [at 0.349 µM] (inactive)

Return activity change, negative = cytotoxicity for the following compound: CCCCOC(=O)CCC(C)=O
inactive

====

# EXPERIMENTAL_PROTOCOL: qHTS assay to identify small molecule agonists of the NFkB signaling pathway - cell viability counter screen (AID 1159515); note: % is set by controls: 0 for no effect and ±100 for the full control effect; nearly all actives have a fitted effect of over 55% in size
# TEST_CONDITIONS: NFkB-bla ME-180 viability, CellTiter-Glo luminescence, 5 h; series mostly up to 61 µM
Results filed as inconclusive are left out. Calls of active or inactive are those of the source. Calls follow the shape of the full dose curve.
ENDPOINT_NAME: activity, negative = cytotoxic

Known activity, negative = cytotoxic results, listed for orientation:
Cc1ccc(-c2ncc(Cl)cc2-c2ccc(S(C)(=O)=O)cc2)cn1 | inactive
C=C[Si](OC(C)=O)(OC(C)=O)OC(C)=O | inactive
CC1CCC(CO)CC1 (stereo not drawn) | inactive
O=CN(CCO)CCO | inactive
CCCC[N+](C)(CCCC)CCCC | inactive

// next item, activity, negative = cytotoxic requested
Supply reported activity, negative = cytotoxic belonging to this molecule: C[C@H]1C[C@H]2[C@@H]3CCC4=CC(=O)C=C[C@]4(C)[C@H]3C(=O)C[C@]2(C)[C@@]1(O)C(=O)CO
inactive

====

# EXPERIMENTAL_PROTOCOL: qHTS assay to identify small molecule antagonists of the vitamin D receptor (VDR) signaling pathway - cell viability counter screen (AID 743225); note: % is set by controls: 0 for no effect and ±100 for the full control effect; nearly all actives have a fitted effect of over 50% in size
# TEST_CONDITIONS: VDR-bla HEK293T viability, CellTiter-Glo luminescence, 16 h; series mostly up to 61 µM
Results filed as inconclusive are left out. Active and inactive are the calls of the source. Calls follow the shape of the dose curve; as a rule, active = well fitted cell-killing curve with a large enough effect in the repeat runs; inconclusive = weak or mixed curves, or effect the other way; inactive = no such curve, though single readings can be large or run the other way.
ENDPOINT_NAME: viability change, negative = cytotoxic

Worked examples follow.
CC(=O)OCC(=O)[C@@]1(O)[C@H](C)C[C@H]2[C@@H]3CCC4=CC(=O)C=C[C@]4(C)[C@@]3(F)[C@@H](O)C[C@@]21C | inactive
C=COC(=O)C(C)(CC)CCC(C)C (stereo unspecified) | inactive
CCCCCCCCCCOc1cc2c(=O)c(C(=O)OCC)c[nH]c2cc1OCC | -0.675% [at 6.95 µM] (inactive)
CC(COc1ccccc1)NN (stereo unspecified) | inactive
Nc1ccncc1N | inactive
CC(C)[C@H]1CC[C@@H](C)CC1=O | inactive
C[N+]1(CC2COC(c3ccccc3)(c3ccccc3)O2)CCCCC1 (stereo unspecified) | inactive
O=C(O)Cc1csc(-c2ccc(Cl)cc2)n1 | inactive

Retrieve viability change, negative = cytotoxic measured for CCCc1nn(C)c2c(=O)[nH]c(-c3cc(S(=O)(=O)N4CCN(C)CC4)ccc3OCC)nc12 and print it.
inactive

Give the reported value of viability change, negative = cytotoxic for this record: COCCOC[C@H](CC1(C(=O)NC2CCC(C(=O)O)CC2)CCCC1)C(=O)Oc1ccc2c(c1)CCC2 (stereo partly specified)
inactive

Specify reported viability change, negative = cytotoxic for the molecule shown: CC(=O)NC(=O)c1ccccc1O
inactive
